Property: pIC50; scope: individual compounds
# Tested On: Kv1.3 potassium channel (Homo sapiens)
# Construct: expressed in transfected cells
# Sequence (P22001 whole entry): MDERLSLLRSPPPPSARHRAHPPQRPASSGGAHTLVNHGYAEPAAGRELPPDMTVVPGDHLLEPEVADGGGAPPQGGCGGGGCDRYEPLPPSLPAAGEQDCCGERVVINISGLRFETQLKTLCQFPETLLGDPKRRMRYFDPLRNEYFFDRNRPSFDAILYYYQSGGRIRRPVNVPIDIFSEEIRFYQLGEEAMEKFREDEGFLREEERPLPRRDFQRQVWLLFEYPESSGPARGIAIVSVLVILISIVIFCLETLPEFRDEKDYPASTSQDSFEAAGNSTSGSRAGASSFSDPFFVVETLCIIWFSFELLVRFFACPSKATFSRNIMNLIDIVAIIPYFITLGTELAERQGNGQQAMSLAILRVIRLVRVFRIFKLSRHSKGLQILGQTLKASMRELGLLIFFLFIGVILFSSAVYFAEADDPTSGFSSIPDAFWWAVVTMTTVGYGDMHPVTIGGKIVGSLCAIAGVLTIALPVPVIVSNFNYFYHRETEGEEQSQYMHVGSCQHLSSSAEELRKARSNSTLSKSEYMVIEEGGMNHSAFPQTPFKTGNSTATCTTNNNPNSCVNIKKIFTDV
# Experimental Protocol: Kv1.3 potassium channel blocker activity, automated whole-cell patch clamp (Patchliner)
# Type: cell-based
# Recorded Conditions: CHO-K1 cells stably expressing Kv1.3; 100 ms pulses from -90 mV to +40 mV, 0.1 Hz
pIC50: −log10 of the molar value.

As a guide, the following entries are already answered.
C[C@@H](O)C(=O)N1CC(=O)N2CC[C@@H](c3c(O)ccc(Cl)c3Cl)C[C@H]2C1	> 6.00
O=C1[C@@H](CO)NC[C@H]2C[C@@H](c3c(O)ccc(Cl)c3Cl)CCN12	> 6.00
O=C(CCO)N1CC(=O)N2C[C@@H](c3c(O)ccc(Cl)c3Cl)C[C@H]2C1	> 6.00
CO[C@H](CO)C(=O)N1CC(=O)N2C[C@@H](c3c(O)ccc(Cl)c3Cl)C[C@H]2C1	> 6.00
C[C@H](O)C(=O)N1CC(=O)N2CC[C@@H](c3c(O)ccc(Cl)c3Cl)C[C@H]2C1	> 6.00
C[C@@H](CO)C(=O)N1CC(=O)N2CC[C@H](c3c(O)ccc(Cl)c3Cl)C[C@@H]2C1	> 6.00
O=C(CO)N1CC(=O)N2C[C@H](c3c(O)ccc(Cl)c3Cl)CC[C@H]2C1 (relative stereo)	> 6.00
O=C1CNC[C@H]2C[C@@H](c3c(O)ccc(Cl)c3Cl)CCN12	> 6.00
CC1[C@@H]2C[C@H](c3c(O)ccc(Cl)c3Cl)CCN2C(=O)CN1C(=O)CO (stereo partly shown)	> 6.00
O=C1[C@@H](CO)NC[C@@H]2C[C@H](c3c(O)ccc(Cl)c3Cl)CCN12 (relative stereo) [Compound 28]	> 6.00

-- ask I'm curious: which pIC50 was measured for `O=C([C@H](O)CO)N1CC(=O)N2C[C@@H](c3c(O)ccc(Cl)c3Cl)C[C@H]2C1` tested on Kv1.3 potassium channel (Homo sapiens)?
-- reply > 6.00

-- ask I'm curious: which pIC50 was measured for `C[C@H]1C(=O)N2CC[C@@H](c3c(O)ccc(Cl)c3Cl)C[C@H]2CN1C(=O)CO` tested on Kv1.3 potassium channel (Homo sapiens)?
-- reply > 6.00

-- ask I'm curious: which pIC50 was measured for O=C([C@H](O)CO)N1CC(=O)N2CC[C@H](c3c(O)ccc(Cl)c3Cl)C[C@@H]2C1 (relative stereo) tested on Kv1.3 potassium channel (Homo sapiens)?
-- reply > 6.00
